experimental system: Ba/F3 stable cells (Homo sapiens, UniProt P04626, DUP772-775, cells depend on it)
Construct: EC50 Ba/F3-HER2 A775-G776insYVMA; other: Ba/F3-HER2 A775-G776insYVMA cells, 72 h, CCK-8
Sequence (P04626 with tags, fused parts or gaps DUP772-775): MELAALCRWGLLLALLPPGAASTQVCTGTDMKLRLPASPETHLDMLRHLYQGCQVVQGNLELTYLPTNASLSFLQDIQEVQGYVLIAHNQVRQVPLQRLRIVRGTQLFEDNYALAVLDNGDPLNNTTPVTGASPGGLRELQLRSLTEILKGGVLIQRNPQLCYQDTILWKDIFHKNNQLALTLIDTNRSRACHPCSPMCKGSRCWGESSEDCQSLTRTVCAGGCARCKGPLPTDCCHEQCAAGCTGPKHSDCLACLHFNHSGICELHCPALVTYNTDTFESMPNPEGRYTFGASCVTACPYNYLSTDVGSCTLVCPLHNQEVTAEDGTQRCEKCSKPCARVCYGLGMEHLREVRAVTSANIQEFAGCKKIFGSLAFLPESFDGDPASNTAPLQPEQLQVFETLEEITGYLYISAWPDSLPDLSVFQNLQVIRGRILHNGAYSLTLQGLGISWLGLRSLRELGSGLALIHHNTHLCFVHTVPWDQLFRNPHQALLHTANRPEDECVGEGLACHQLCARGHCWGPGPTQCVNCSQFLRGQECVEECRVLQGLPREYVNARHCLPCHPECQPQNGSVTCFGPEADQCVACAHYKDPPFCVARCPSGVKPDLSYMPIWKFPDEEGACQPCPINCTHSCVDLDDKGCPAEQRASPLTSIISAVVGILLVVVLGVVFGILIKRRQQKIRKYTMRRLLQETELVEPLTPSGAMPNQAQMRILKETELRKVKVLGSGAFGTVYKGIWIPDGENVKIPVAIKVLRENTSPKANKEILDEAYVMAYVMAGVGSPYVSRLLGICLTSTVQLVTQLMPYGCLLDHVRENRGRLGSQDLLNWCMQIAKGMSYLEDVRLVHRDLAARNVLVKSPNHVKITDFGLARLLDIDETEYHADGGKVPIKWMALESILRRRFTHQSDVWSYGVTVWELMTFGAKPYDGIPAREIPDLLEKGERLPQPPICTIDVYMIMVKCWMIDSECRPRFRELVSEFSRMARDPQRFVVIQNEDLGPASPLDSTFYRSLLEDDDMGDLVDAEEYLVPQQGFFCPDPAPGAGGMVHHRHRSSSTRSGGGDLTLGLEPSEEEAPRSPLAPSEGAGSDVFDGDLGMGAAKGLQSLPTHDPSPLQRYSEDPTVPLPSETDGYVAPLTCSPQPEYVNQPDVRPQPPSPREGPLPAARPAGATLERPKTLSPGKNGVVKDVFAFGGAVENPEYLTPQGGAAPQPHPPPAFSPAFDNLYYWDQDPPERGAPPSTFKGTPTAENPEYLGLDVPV
measurement description: EC50 assay: Ba/F3 stable cell proliferation (CCK-8, 72 h)
measurement conditions: Ba/F3-HER2 A775-G776insYVMA cells
Method: 4,000 Ba/F3 stable cells/90 μL/well were plated onto 96-well cell culture plate (Grenier, Cat.No. 655180) and incubated at 37° C. with a humidified atmosphere of 5% CO2 for 2 h. Then the cells were treated with 10 μL compounds at serial titration. […] 10 μL the cell proliferation reagent CCK-8 (Dojindo, Cat.No. CK04 1000T) was added into each well and incubated the plate at 37° C. for 4 hours, the GD value was measured by SPECTRAmax plus (Molecular Devices) at 450 nm. […]
Catalogue of compounds with associated EC50

Problem: Value wanted: EC50 (Ba/F3 stable cells (Homo sapiens, UniProt P04626, DUP772-775, cells depend on it)) of entry C=CC(=O)N1CCC(Oc2c(OC)cc3ncnc4c3c2NC(=O)N4c2ccc(Cl)c(Cl)c2F)C1 (stereo not drawn)
Result: > 1000 nM

Problem: Please state recorded EC50 (tested on Ba/F3 stable cells (Homo sapiens, UniProt P04626, DUP772-775, cells depend on it)) of C=CC(=O)N1CCC(Oc2cc3c(NCc4ccccc4)ncnc3cc2OC)CC1
Result: 200 to 1000 nM

Problem: Notebook: pull reported EC50 for Ba/F3 stable cells (Homo sapiens, UniProt P04626, DUP772-775, cells depend on it), entry C=CC(=O)N1CC(c2cc3c(Nc4ccc(F)c(Cl)c4)ncnc3cc2OC)C1
Result: ≤ 200 nM

Problem: Entry C=CC(=O)N[C@H]1C[C@@H](Oc2cc3c(Nc4ccc(Cl)c(Cl)c4F)ncnc3cc2OC2COC2)C1 , system Ba/F3 stable cells (Homo sapiens, UniProt P04626, DUP772-775, cells depend on it): what EC50 was measured?
Result: 200 to 1000 nM

Problem: // map C=CC(=O)N1CC(c2cc3c(Nc4ccc(Cl)c(Cl)c4F)ncnc3cc2OCCCN2CCN(C)CC2)C1 to recorded EC50 (system: Ba/F3 stable cells (Homo sapiens, UniProt P04626, DUP772-775, cells depend on it))
Result: 200 to 1000 nM

Problem: EC50 of C=CC(=O)N1CC(c2cc3c(Nc4ccc5c(c4)CCN5)ncnc3cc2OC)C1 on Ba/F3 stable cells (Homo sapiens, UniProt P04626, DUP772-775, cells depend on it)?
Result: > 1000 nM

Problem: # value lookup — system Ba/F3 stable cells (Homo sapiens, UniProt P04626, DUP772-775, cells depend on it), readout EC50, item C#CC(=O)N1CCC(Oc2cc3c(Nc4cccc5ccccc45)ncnc3cc2OC)CC1
Result: ≤ 200 nM

Problem: // map C=CC(=O)N[C@H]1C[C@@H](Oc2cc3c(Nc4ccc(Cl)c(Cl)c4F)ncnc3cc2OCCN(C)C)C1 to recorded EC50 (system: Ba/F3 stable cells (Homo sapiens, UniProt P04626, DUP772-775, cells depend on it))
Result: > 1000 nM

Problem: Form field: EC50 recorded for C=CC(=O)N1CC(c2cc3c(Nc4ccc(Cl)c(Cl)c4F)ncnc3cc2OCCOC)C1 with Ba/F3 stable cells (Homo sapiens, UniProt P04626, DUP772-775, cells depend on it) (enter value)
Result: ≤ 200 nM

Problem: Hello, I am looking for reported EC50 with Ba/F3 stable cells (Homo sapiens, UniProt P04626, DUP772-775, cells depend on it) for C#CC(=O)N1C2CCC1CC(Oc1cc3c(Nc4cccc5c4CCC5)ncnc3cc1OC)C2 (stereo not drawn) . Could you help?
Result: 200 to 1000 nM

Problem: Query the reported EC50 for Ba/F3 stable cells (Homo sapiens, UniProt P04626, DUP772-775, cells depend on it); item: C=CC(=O)N1CCC(Oc2cc3c(N4CCN(c5cccc(Cl)c5)CC4)ncnc3cc2OC)CC1
Result: > 1000 nM

Problem: Could you share what EC50 was measured for C=CC(=O)N[C@H]1C[C@@H](Oc2cc3c(Nc4ccc(Cl)c(Cl)c4F)ncnc3cc2O[C@H]2CCOC2)C1 , tested on Ba/F3 stable cells (Homo sapiens, UniProt P04626, DUP772-775, cells depend on it)?
Result: ≤ 200 nM

====

We begin with a simple list: items and their reported pEC50.
experimental system: Ba/F3 stable cells (Homo sapiens, UniProt P00533, DUP768-770, cells depend on it)
Construct: EC50 Ba/F3-EGFR D770-N771insSVD; other: Ba/F3-EGFR D770-N771insSVD cells, 72 h, CCK-8
Sequence (P00533 with tags, fused parts or gaps DUP768-770): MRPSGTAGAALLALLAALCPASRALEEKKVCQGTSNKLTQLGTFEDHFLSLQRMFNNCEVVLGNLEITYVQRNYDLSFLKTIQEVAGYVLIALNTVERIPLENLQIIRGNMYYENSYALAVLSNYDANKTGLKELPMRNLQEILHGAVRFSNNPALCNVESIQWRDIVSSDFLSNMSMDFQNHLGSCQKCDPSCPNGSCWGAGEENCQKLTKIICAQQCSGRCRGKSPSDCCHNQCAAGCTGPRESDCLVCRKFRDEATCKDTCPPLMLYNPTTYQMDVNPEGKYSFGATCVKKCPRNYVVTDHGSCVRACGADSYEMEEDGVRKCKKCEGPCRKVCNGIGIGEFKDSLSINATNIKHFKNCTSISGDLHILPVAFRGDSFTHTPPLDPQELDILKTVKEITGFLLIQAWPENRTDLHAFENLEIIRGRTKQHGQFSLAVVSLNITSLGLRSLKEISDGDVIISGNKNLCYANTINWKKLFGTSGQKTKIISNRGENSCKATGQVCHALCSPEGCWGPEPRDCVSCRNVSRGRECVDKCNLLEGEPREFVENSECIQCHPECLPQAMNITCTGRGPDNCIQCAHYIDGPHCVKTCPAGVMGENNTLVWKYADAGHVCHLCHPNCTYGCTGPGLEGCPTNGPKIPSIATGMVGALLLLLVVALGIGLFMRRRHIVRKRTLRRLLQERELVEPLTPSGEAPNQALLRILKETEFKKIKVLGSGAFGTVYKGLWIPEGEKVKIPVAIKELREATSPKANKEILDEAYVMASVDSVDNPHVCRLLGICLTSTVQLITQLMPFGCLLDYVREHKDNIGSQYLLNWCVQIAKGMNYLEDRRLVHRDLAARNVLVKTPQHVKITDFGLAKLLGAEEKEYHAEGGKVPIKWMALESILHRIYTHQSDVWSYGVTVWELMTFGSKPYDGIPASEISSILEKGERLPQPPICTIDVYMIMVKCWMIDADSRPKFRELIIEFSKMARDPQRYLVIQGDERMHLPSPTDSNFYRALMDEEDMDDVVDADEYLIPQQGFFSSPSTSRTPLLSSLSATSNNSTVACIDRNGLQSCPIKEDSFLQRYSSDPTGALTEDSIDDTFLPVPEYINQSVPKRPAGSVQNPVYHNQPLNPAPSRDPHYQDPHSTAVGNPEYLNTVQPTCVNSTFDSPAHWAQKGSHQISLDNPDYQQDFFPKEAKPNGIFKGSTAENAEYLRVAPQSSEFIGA
measurement description: EC50 assay: Ba/F3 stable cell proliferation (CCK-8, 72 h)
measurement conditions: Ba/F3-EGFR D770-N771insSVD cells
pEC50: −log10 of the molar value.

Problem: Sample C=CC(=O)N1CCC(Oc2cc3c(Nc4cccc5c4CCC5)ncnc3cc2OC)CC1 — what was its pEC50?
Result: 6.00 to 6.70

Problem: What value of pEC50 has been recorded for this entry: C=CC(=O)N1CC(c2cc3c(Nc4ccc(Cl)c(Cl)c4F)ncnc3cc2OCC)C1
Result: ≥ 6.70

Problem: Would you kindly share the measured pEC50 for C=CC(=O)N1CCC(Oc2cc3c(Nc4ccc5ncccc5c4)ncnc3cc2OC)CC1 ?
Result: < 6.00

Problem: Which pEC50 value is on record for C=C(F)C(=O)N[C@H]1C[C@@H](Oc2cc3c(Nc4ccc(Cl)c(Cl)c4F)ncnc3cc2OC)C1 ?
Result: 6.00 to 6.70

Problem: Return reported pEC50; argument: C=CC(=O)N1CCC(Oc2cc3c(Nc4ccc5ccccc5c4)ncnc3cc2OC)CC1
Result: ≥ 6.70

Problem: May I ask what pEC50 has been recorded for C=CC(=O)N[C@H]1C[C@@H](Oc2cc3c(Nc4ccc(Cl)c(Cl)c4F)ncnc3cc2OCCN(C)C)C1 ?
Result: < 6.00

Problem: Find the recorded pEC50 belonging to C=CC(=O)N1CCC(Oc2cc3c(Nc4ccc5c(c4)CCN5S(C)(=O)=O)ncnc3cc2OC)CC1 and report it.
Result: < 6.00

Problem: Sample C=CC(=O)N[C@H]1CC[C@H](Oc2cc3c(Nc4ccc(Cl)c(Cl)c4F)ncnc3cc2OC)CC1 — what was its pEC50?
Result: 6.00 to 6.70

Problem: Requested field: pEC50. Item: C#CC(=O)N1C2CCC1CC(Oc1cc3c(Nc4ccc5ccccc5c4)ncnc3cc1OC)C2 (stereo not shown)
Result: 6.00 to 6.70

====

experimental system: Ba/F3 stable cells (Homo sapiens, UniProt P04626, DUP772-775, cells depend on it)
Construct: EC50 Ba/F3-HER2 A775-G776insYVMA; other: Ba/F3-HER2 A775-G776insYVMA cells, 72 h, CCK-8
measurement description: EC50 assay: Ba/F3 stable cell proliferation (CCK-8, 72 h)
measurement conditions: Ba/F3-HER2 A775-G776insYVMA cells
property: EC50

# annotated cases, reported EC50 shown
>  <compound>
C=CC(=O)NC1CC(Oc2cc3c(Nc4ccc5c(c4)CCCC5=O)ncnc3cc2OC)C1 (stereo not shown)

>  <experimental system>
Ba/F3 stable cells (Homo sapiens, UniProt P04626, DUP772-775, cells depend on it)

>  <EC50>
> 1000 nM

$$$$
>  <compound>
C=CS(=O)(=O)NC1CC(Oc2cc3c(Nc4ccc(Cl)c(Cl)c4F)ncnc3cc2OC)C1 (stereo not shown)

>  <experimental system>
Ba/F3 stable cells (Homo sapiens, UniProt P04626, DUP772-775, cells depend on it)

>  <EC50>
> 1000 nM

$$$$
>  <compound>
C=CC(=O)N1CCC(Oc2cc3c(Nc4ccc5[nH]ccc5c4)ncnc3cc2OC)CC1

>  <experimental system>
Ba/F3 stable cells (Homo sapiens, UniProt P04626, DUP772-775, cells depend on it)

>  <EC50>
≤ 200 nM

$$$$
>  <compound>
C=CC(=O)N1CCC(Oc2cc3c(Nc4nccc5ccccc45)ncnc3cc2OC)CC1

>  <experimental system>
Ba/F3 stable cells (Homo sapiens, UniProt P04626, DUP772-775, cells depend on it)

>  <EC50>
> 1000 nM

$$$$
>  <compound>
C=CC(=O)N1CCC(Oc2cc3c(C(=O)NCc4ccc(F)cc4)ncnc3cc2OC)CC1

>  <experimental system>
Ba/F3 stable cells (Homo sapiens, UniProt P04626, DUP772-775, cells depend on it)

>  <EC50>
> 1000 nM

$$$$

Problem: Any idea what EC50 was measured for C=CC(=O)NC1COc2c(-c3cnc4ccccc4c3)c3c(N)ncnc3n2C1 (stereo not shown) ?
Result: > 1000 nM

Problem: # query: EC50 of entry C=CC(=O)N1CCC(Oc2c(OC)cc3ncnc4c3c2C=C(C)N4c2ccc(Cl)c(Cl)c2F)CC1
Result: > 1000 nM

Problem: Quick one: EC50 for C#CC(=O)N1C2CCC1CC(Oc1cc3c(Nc4ccc5ccccc5c4)ncnc3cc1OC)C2 (stereo not shown) ?
Result: 200 to 1000 nM

Problem: Which value of EC50 has been reported for C#CC(=O)N1CCCC(c2ccc3ncnc(Nc4ccc(Cl)c(Cl)c4F)c3c2)C1 (stereo not shown) in the records?
Result: 200 to 1000 nM
